B1: CPEB3 Ribozyme (parent)
chain: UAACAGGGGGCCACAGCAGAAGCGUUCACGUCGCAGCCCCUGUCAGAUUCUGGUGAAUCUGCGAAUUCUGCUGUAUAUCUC

Variants of: B1
test.method.notes: self-cleavage, relative activity (ratio to wild type); higher = more cleavage; in vitro, sequencing
Response field class: string, computed from recorded self-cleavage by ranges lo (below 0.3), med (0.3 to below 0.5), hi (0.5 or more)

U31C A35C = med

QUERY: Could you tell me which band U43A G63U belongs to?
RESULT: hi

QUERY: Could you tell me which band G8C U66C belongs to?
RESULT: med

QUERY: Could you tell me which band A5U A56C belongs to?
RESULT: hi

QUERY: Could you tell me which band A56U A65G belongs to?
RESULT: lo

QUERY: Could you tell me which band A65C C79G belongs to?
RESULT: lo

QUERY: Could you tell me which band C11U U25C belongs to?
RESULT: lo

QUERY: Could you tell me which band C11G U76C belongs to?
RESULT: hi

QUERY: Could you tell me which band C12U U74G belongs to?
RESULT: hi

QUERY: Could you tell me which band A35C A45C belongs to?
RESULT: med

QUERY: Could you tell me which band C23A U31C belongs to?
RESULT: lo

QUERY: Could you tell me which band `G46C` belongs to?
RESULT: med

QUERY: Could you tell me which band C39U A47G belongs to?
RESULT: med

QUERY: Could you tell me which band C59U G73A belongs to?
RESULT: hi

QUERY: Could you tell me which band A5U U69A belongs to?
RESULT: hi

QUERY: Could you tell me which band A5C A15C belongs to?
RESULT: hi

QUERY: Could you tell me which band A64U U78C belongs to?
RESULT: med

QUERY: Could you tell me which band G19U U72C belongs to?
RESULT: med

QUERY: Could you tell me which band C62G U72A belongs to?
RESULT: lo

QUERY: Could you tell me which band G7U G33A belongs to?
RESULT: lo

Source: the RNAGym collection of RNA variant scans (doi:10.1093/nar/gkz1192)
